ASSAY TARGET: human CDH6 with EC1 removed, on HEK293T cells (HEK293T-hCDH6-EC1 deletion) (human) (UniProt P55285)
TEST NAME: FACS, HEK293T-hCDH6-EC1 deletion cells
REPORTED METRIC: Max MFI (MFI)

BINDER | REPORTED METRIC | QUANTITATIVE READOUT
NOV0712 (antibody, human IgG1, kappa, V domains shown) VH: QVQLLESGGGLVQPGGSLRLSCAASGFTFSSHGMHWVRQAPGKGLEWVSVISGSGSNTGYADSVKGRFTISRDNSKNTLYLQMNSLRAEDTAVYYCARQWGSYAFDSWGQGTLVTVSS VL: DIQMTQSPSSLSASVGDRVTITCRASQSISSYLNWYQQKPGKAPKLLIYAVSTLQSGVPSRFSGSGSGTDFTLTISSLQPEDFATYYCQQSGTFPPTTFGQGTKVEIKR | Max MFI | 23600
CHI-CDH6-7 (antibody, human IgG1, kappa, V domains shown) VH: EVKLVESGGGLVKPGGSLKVSCAASGFTFSDHGMAWVRQAPGKGPEWVAFISNLAYSIYYADTVTGRFTISRENAKNTLYLEMSSLRSEDTAMYYCARVYVKWYFDVWGAGTTVTVSS VL: DIQMTQSPASLSASVGETVTITCRASENIDSYLAWYQQKQGKSPQLLVFAATLLADGVPSRFSGSGSGTQYSLKINSLQSEDVARYYCQHYYSTPLTFGAGTKLELKR | Max MFI | 88
CHI-CDH6-14 (antibody, human IgG1, kappa, V domains shown, also called CHI- hCDH6-14) VH: QIQLQQSGPELVKPGTSVKISCKASGYTFTDNYINWVRQRPGQGLEWIGWIYPGTGNSYYNEKFKGKATLTVDTSSSTAYMQFSSLTSEDSAVYLCASSYGDSFDYWGQGTTLTVSS VL: DIQMTQTTSSLSASLGNRVTISCRASQDIRNYLNWYQQKPDGTFKLLISYTSRLHSGVPSRFSGSGSGTDYSLTVSNLEPEDIATYYCQQYSQLPWTFGGGSRLEIKR | Max MFI | 7210
